Attribute: Ki
# targetDesc: CX3CR1 (Homo sapiens, UniProt P49238)
# Sequence (P49238 1-355): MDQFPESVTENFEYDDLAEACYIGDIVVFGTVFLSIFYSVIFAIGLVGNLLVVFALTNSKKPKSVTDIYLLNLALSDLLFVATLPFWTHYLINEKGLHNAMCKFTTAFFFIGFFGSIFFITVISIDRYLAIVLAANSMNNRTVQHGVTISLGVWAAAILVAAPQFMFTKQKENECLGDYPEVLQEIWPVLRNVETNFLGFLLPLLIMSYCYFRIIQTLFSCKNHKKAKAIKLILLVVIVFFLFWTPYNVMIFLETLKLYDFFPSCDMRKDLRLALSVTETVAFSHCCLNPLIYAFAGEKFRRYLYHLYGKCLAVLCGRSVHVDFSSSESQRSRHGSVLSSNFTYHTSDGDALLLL
Kindly provide the numeric value in µM only, without the unit symbol.

Request: Answer with the recorded Ki of CC(C)C[C@H](CO)Nc1nc(SCc2ccccc2)nc2[nH]c(=O)sc12 only.
Result: 0.054

In the following, a different compound is considered.
Request: Answer with the recorded Ki of CCC(Sc1nc(N[C@@H](CO)CC(C)C)c2sc(=O)[nH]c2n1)c1ccccc1 (some centres unmarked) only.
Result: 0.0058
